# testDescription: Pharmacokinetics study, plasma concentration after intravenous bolus (LC-MS/MS)
# Format: in vivo, male Wistar rats
# conditionsUsed: male, Wistar; rat, iv bolus 0.07 mg/kg, plasma, mean ± SE n=6; read-out: AUC0–8h
readoutLabel: AUC(0-t) (ng·h/mL)
Field format: number, assumed ng·h/mL, no unit text.

## Task Query (compound): "CC(C)[C@H]1CC[C@H]2[C@@H]3CCC4=C/C(=[N+](\C)[O-])CC[C@]4(C)[C@H]3CC[C@]12C" ; field requested: AUC(0-t)
## Result 81.1

----------
# testDescription: Pharmacokinetics study, plasma concentration after intravenous bolus (LC-MS/MS)
# Format: in vivo, male Wistar rats
# conditionsUsed: male, Wistar, plasma; rat, iv bolus 0.07 mg/kg, mean ± SE n=6; read-out: kel (terminal elimination constant) (converted)
readoutLabel: k el
Param answer (str): number followed by unit.

## Task Query (molecule): "CC(C)[C@H]1CC[C@H]2[C@@H]3CCC4=C/C(=[N+](\C)[O-])CC[C@]4(C)[C@H]3CC[C@]12C" ; field requested: k el
## Result 8.81e-05 s⁻¹

----------
# testDescription: Pharmacokinetics study, plasma concentration after intravenous bolus (LC-MS/MS)
# Type: in vivo, male Wistar rats
# conditionsUsed: male, Wistar; rat, iv bolus 1.00 mg/kg, plasma, mean ± SE n=6; read-out: AUC0–8h
readoutLabel: AUC(0-t) (ng·h/mL)
Field format: number, assumed ng·h/mL, no unit text.

## Task Query (molecule): CC(C)[C@H]1CC[C@H]2[C@@H]3CCC4=C/C(=[N+](\C)[O-])CC[C@]4(C)[C@H]3CC[C@]12C [ISQ-201] ; field requested: AUC(0-t)
## Result 2030

Recorded values, source paper PMC7222207.
